Target: Induced myeloid leukemia cell differentiation protein Mcl-1 (Homo sapiens)
Sequence (Q07820 whole entry): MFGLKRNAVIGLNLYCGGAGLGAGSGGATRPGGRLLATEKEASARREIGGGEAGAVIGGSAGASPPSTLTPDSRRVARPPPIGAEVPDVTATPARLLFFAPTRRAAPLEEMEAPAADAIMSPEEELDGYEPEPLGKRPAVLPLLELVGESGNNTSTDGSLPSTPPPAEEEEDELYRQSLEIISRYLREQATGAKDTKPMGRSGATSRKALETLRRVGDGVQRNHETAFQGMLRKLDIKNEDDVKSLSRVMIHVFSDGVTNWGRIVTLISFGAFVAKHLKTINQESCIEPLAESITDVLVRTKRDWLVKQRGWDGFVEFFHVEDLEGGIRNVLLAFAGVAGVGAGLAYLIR
Assay: Displacement of FAM-Bid peptide from human Mcl-1 after 30 mins by competitive fluorescence polarization assay
metric name: pKi
Value format note: pKi is -log10 of concentration (mol/L); just state the number.

Worked examples, 5 compounds total:
{"test smiles": "COc1cccc(Oc2ccc3c4c(cccc24)C2=NC(=O)C(C#N)=C23)c1", "obs value": 6.43}
{"test smiles": "Cc1cccc(Oc2ccc3c4c(cccc24)C2=NC(=O)C(C#N)=C23)c1", "obs value": 6.35}
{"test smiles": "COc1ccc(Oc2ccc3c4c(cccc24)C2=NC(=O)C(C#N)=C23)cc1", "obs value": 6.91}
{"test smiles": "Cc1ccc(Oc2ccc3c4c(cccc24)C2=NC(=O)C(C#N)=C23)cc1", "obs value": 6.76}
{"test smiles": "COc1ccccc1Oc1ccc2c3c(cccc13)C1=NC(=O)C(C#N)=C12", "obs value": 6.83}

Let us examine a further case.
Incoming: Provide measured pKi on Induced myeloid leukemia cell differentiation protein Mcl-1 (Homo sapiens) for Cc1ccccc1Oc1ccc2c3c(cccc13)C1=NC(=O)C(C#N)=C12 please.
Outgoing: 6.67

###

Reported pKi is given for each of the following compounds.
Target: Apoptosis regulator Bcl-2 (Homo sapiens, UniProt P10415)
Sequence (P10415 whole entry): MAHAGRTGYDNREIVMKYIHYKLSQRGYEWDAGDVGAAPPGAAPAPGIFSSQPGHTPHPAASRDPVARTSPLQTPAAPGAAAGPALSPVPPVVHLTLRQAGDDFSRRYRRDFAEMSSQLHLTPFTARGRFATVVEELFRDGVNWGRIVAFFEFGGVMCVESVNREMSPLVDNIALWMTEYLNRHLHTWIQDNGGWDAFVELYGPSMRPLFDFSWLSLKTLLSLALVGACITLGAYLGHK
Assay: Displacement of FAM-Bid peptide from human recombinant Bcl2 after 30 mins by competitive fluorescence polarization assay
Convention used: pKi is expressed as -log10 of the molar concentration.

Here's what some known entries look like.
{"test smiles": "Cc1ccc(Oc2ccc3c4c(cccc24)C2=NC(=O)C(C#N)=C23)cc1", "pKi": 6.35}
{"test smiles": "COc1ccccc1Oc1ccc2c3c(cccc13)C1=NC(=O)C(C#N)=C12", "pKi": 6.05}

For the next question, use this compound.
Incoming: Check the records and state pKi for Cc1ccccc1Oc1ccc2c3c(cccc13)C1=NC(=O)C(C#N)=C12
Outgoing: 5.84

###

Biological target: Apoptosis regulator Bcl-2 (Homo sapiens)
Test: Displacement of FAM-Bid peptide from human recombinant Bcl2 after 30 mins by competitive fluorescence polarization assay
The following molecules are listed with their measured pKi values.
pKi here: minus log base 10 of the concentration, concentration in moles per litre.

Guide cases for pKi, answers given:
{"test smiles": "N#CC1=C2C(=NC1=O)c1cccc3c(Oc4ccc(-c5ccccc5)cc4)ccc2c13", "obs value": 6.51}
{"test smiles": "COc1ccc(Oc2ccc3c4c(cccc24)C2=NC(=O)C(C#N)=C23)cc1", "obs value": 6.52}
{"test smiles": "CC(C)c1ccc(Oc2ccc3c4c(cccc24)C2=NC(=O)C(C#N)=C23)cc1", "obs value": 6.63}
{"test smiles": "COc1cccc(Oc2ccc3c4c(cccc24)C2=NC(=O)C(C#N)=C23)c1", "obs value": 4.78}

Would you kindly look at the next entry?
Incoming: Report pKi for Cc1cccc(Oc2ccc3c4c(cccc24)C2=NC(=O)C(C#N)=C23)c1
Outgoing: 5.22
